- System: SNU-C4 xenografted nude mice
- protocol: Biodistribution study in SNU-C4 xenografted nude mice after intravenous injection
- Format: in vivo, mouse
- experimentalContext: lung, 30 min after intravenous injection
Each entry below carries its recorded % ID/g Lung.
Could you give me the number in % ID/g? Just the number is fine.

Reference set, count: 3
molecule	displayUnit	result
NC(CN1CCN(CC(=O)[O-])CCNCCN(CC(=O)[O-])CC1)C(=O)[O-].[68Ga+3] (stereo not shown) [^68Ga-DO2A-ala]	% ID/g	8.23
N[C@@H](CN1CCN(CC(=O)[O-])CCN(CC(=O)[O-])CCN(CC(=O)[O-])CC1)C(=O)O.[68Ga+3] (stereo in doubt) [^68Ga-DO3A-ala]	% ID/g	9.35
O=C([O-])CN1CCNCCN(CC(=O)[O-])CCNCC1.[68Ga+3] [^68Ga-DO2A, reference compound]	% ID/g	3.57

Continue with the molecule presented below.
Reported % ID/g Lung for O=C([O-])CN1CCNCCN(CC(=O)[O-])CCN(CC(=O)[O-])CC1.[68Ga+3] [^68Ga-DO3A, reference compound] was 2.82

---

Each entry below carries its recorded % ID/g Kidney.
- Test system: SNU-C4 xenografted nude mice
- protocol: Biodistribution study in SNU-C4 xenografted nude mice after intravenous injection
- Format: in vivo, mouse
- experimentalContext: kidney, 1 hr after intravenous injection
Could you give me the number in % ID/g? Just the number is fine.

compound	% ID/g Kidney (% ID/g)
O=C([O-])CN1CCN(CC(=O)[O-])CCN(CC(=O)[O-])CC1.[68Ga+3] [^68Ga-NOTA, reference compound]	3.56
NC(CN1CCN(CC(=O)[O-])CCNCCN(CC(=O)[O-])CC1)C(=O)[O-].[68Ga+3] (centres unmarked) [^68Ga-DO2A-ala]	4.71

Reported % ID/g Kidney for O=C([O-])CN1CCNCCN(CC(=O)[O-])CCN(CC(=O)[O-])CC1.[68Ga+3] [^68Ga-DO3A, reference compound] was 6.52

Reported % ID/g Kidney for N[C@@H](CN1CCN(CC(=O)[O-])CCN(CC(=O)[O-])CCN(CC(=O)[O-])CC1)C(=O)O.[68Ga+3] (stereo in doubt) [^68Ga-DO3A-ala] was 4.82

Reported % ID/g Kidney for NC(CNC(=O)CN1CCN(CC(=O)[O-])CCN(CC(=O)[O-])CCN(CC(=O)[O-])CC1)C(=O)O.[68Ga+3] (centres unmarked) [^68Ga-DOTA-ala] was 67.43

Reported % ID/g Kidney for O=C([O-])CN1CCNCCN(CC(=O)[O-])CCNCC1.[68Ga+3] [^68Ga-DO2A, reference compound] was 8.46

Reported % ID/g Kidney for O=C([O-])CN1CCN(CC(=O)[O-])CCN(CC(=O)O)CCN(CC(=O)[O-])CC1.[68Ga+3] [^68Ga-DOTA, reference compound] was 4.13

Reported % ID/g Kidney for NC(CNC(=O)CN1CCN(CC(=O)[O-])CCN(CC(=O)[O-])CC1)C(=O)[O-].[68Ga+3] (centres unmarked) [^68Ga-NOTA-ala] was 5.81

---

- Tested on: SNU-C4 xenografted nude mice
- protocol: Biodistribution study in SNU-C4 xenografted nude mice after intravenous injection
- Type: in vivo, mouse
- experimentalContext: muscle, 1 hr after intravenous injection
measuredAttribute: % ID/g Muscle (% ID/g)
Could you give me the number in % ID/g? Just the number is fine.

Reference set, count: 3
molecule	displayUnit	result
N[C@@H](CN1CCN(CC(=O)[O-])CCN(CC(=O)[O-])CCN(CC(=O)[O-])CC1)C(=O)O.[68Ga+3] (stereo in doubt) [^68Ga-DO3A-ala]	% ID/g	1.38
NC(CNC(=O)CN1CCN(CC(=O)[O-])CCN(CC(=O)[O-])CCN(CC(=O)[O-])CC1)C(=O)O.[68Ga+3] (centres unmarked) [^68Ga-DOTA-ala]	% ID/g	0.47
O=C([O-])CN1CCN(CC(=O)[O-])CCN(CC(=O)[O-])CC1.[68Ga+3] [^68Ga-NOTA, reference compound]	% ID/g	0.20

Form field % ID/g Muscle for item NC(CN1CCN(CC(=O)[O-])CCNCCN(CC(=O)[O-])CC1)C(=O)[O-].[68Ga+3] (centres unmarked) [^68Ga-DO2A-ala] on SNU-C4 xenografted nude mice: 0.87

Form field % ID/g Muscle for item O=C([O-])CN1CCNCCN(CC(=O)[O-])CCN(CC(=O)[O-])CC1.[68Ga+3] [^68Ga-DO3A, reference compound] on SNU-C4 xenografted nude mice: 0.32

Form field % ID/g Muscle for item O=C([O-])CN1CCN(CC(=O)[O-])CCN(CC(=O)O)CCN(CC(=O)[O-])CC1.[68Ga+3] [^68Ga-DOTA, reference compound] on SNU-C4 xenografted nude mice: 0.26

Form field % ID/g Muscle for item O=C([O-])CN1CCNCCN(CC(=O)[O-])CCNCC1.[68Ga+3] [^68Ga-DO2A, reference compound] on SNU-C4 xenografted nude mice: 0.45

Form field % ID/g Muscle for item NC(CNC(=O)CN1CCN(CC(=O)[O-])CCN(CC(=O)[O-])CC1)C(=O)[O-].[68Ga+3] (centres unmarked) [^68Ga-NOTA-ala] on SNU-C4 xenografted nude mice: 0.26
